# Target Or Test System: Protein E6 (Human papillomavirus 16)
# Sequence (P03126 whole entry): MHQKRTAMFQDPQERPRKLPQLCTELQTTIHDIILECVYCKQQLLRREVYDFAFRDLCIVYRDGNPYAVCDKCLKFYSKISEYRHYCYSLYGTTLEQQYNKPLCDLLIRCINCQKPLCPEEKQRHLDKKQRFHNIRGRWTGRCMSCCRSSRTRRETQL
# Assay Notes: Inhibition of GST-tagged Human papillomavirus 16 protein E6 interaction with His-tagged human caspase 8 expressed in Escherichia coli at 20 nM to 20 uM after 1 hr incubation followed by overnight incubation by Alpha screening technique
Active and inactive are the calls of the source. The calls are words filed in the database; no cut-off is given here.
Respond only with the outcome that fits, drawn from yes (active), no (inactive)

Recorded results for 5 compounds are shown here.
>>> print(df.to_string())
                                chem_smiles  class_assignment
0            O=c1c(O)c(-c2ccccc2)oc2ccccc12                no
1   COc1cc(-c2oc3cc(O)cc(O)c3c(=O)c2O)ccc1O                no
2        COc1ccc2c(=O)c(O)c(-c3ccccc3)oc2c1                no
3  O=C(O)Cc1cc(Cl)c2oc(-c3ccc(Cl)cc3)c(O)c(=O)c2c1                no
4         O=c1c(O)c(-c2ccccc2)oc2cc(O)ccc12                no

State the result this test recorded for COc1cc(-c2oc3cc(O)ccc3c(=O)c2O)ccc1O . no

State the result this test recorded for O=c1c(O)c(-c2ccccc2)oc2ccc(O)cc12 . no

State the result this test recorded for CC(C)c1ccc(-c2oc3c(Cl)cc(CC(=O)O)cc3c(=O)c2O)cc1 . no

State the result this test recorded for O=c1cc(-c2ccc(O)cc2)oc2cc(O)cc(O)c12 . no

State the result this test recorded for O=c1c(O)c(-c2ccccc2O)oc2cc(O)cc(O)c12 . no

State the result this test recorded for COc1cc(O)c2c(=O)c(O)c(-c3ccc(O)c(O)c3)oc2c1 . no

State the result this test recorded for O=c1c(O)c(-c2ccc(O)c(O)c2)oc2cc(O)ccc12 . no

State the result this test recorded for O=c1c(O)c(-c2ccccc2)oc2cc(O)cc(O)c12 . yes

State the result this test recorded for O=c1cc(-c2ccccc2)oc2ccccc12 . no

State the result this test recorded for O=C(O)Cc1cc(Cl)c2oc(-c3ccccc3)c(O)c(=O)c2c1 . no

---

# IC50 annotations
# Target Or Test System: UniProt:P03126
# Assay Notes: Inhibition of GST-tagged Human papillomavirus 16 protein E6 interaction with His-tagged human caspase 8 expressed in Escherichia coli after 1 hr incubation followed by overnight incubation by Alpha screening technique
Enter your answer as a number in µM; do not include the unit.

>>> df
                                chem_smiles  value_reported
0  O=c1c(O)c(-c2ccc(O)cc2O)oc2cc(O)cc(O)c12               4

// below: IC50 requested for another compound
Output IC50 of O=c1c(O)c(-c2cc(O)c(O)c(O)c2)oc2cc(O)cc(O)c12 0.85
